# maps each entry to its Ratio
test: Selectivity, ratio between relative ID50 in liver and heart
Give only the figure.

Here is how some molecules turned out for Ratio.
SMILES CODE: N[C@@H](Cc1cc(I)c(Oc2ccc(O)c(Cc3cnc(O)nc3)c2)c(I)c1)C(=O)O
Ratio: 45.2
//
SMILES CODE: N[C@@H](Cc1cc(I)c(Oc2ccc(O)c(Cc3ccc(O)nc3)c2)c(I)c1)C(=O)O
Ratio: 50
//
SMILES CODE: N[C@@H](Cc1cc(I)c(Oc2ccc(O)c(Cc3ccccc3O)c2)c(I)c1)C(=O)O
Ratio: 1
//
SMILES CODE: N[C@@H](Cc1cc(I)c(Oc2ccc(O)c(Cc3ccccc3)c2)c(I)c1)C(=O)O
Ratio: 17

[ask] Fill in: Ratio of N[C@@H](Cc1cc(I)c(Oc2ccc(O)c(Cc3ccc(O)cc3)c2)c(I)c1)C(=O)O is ___
[reply] 27.1

====

Target: Thyroid hormone receptor beta (Rattus norvegicus)
Sequence (whole entry): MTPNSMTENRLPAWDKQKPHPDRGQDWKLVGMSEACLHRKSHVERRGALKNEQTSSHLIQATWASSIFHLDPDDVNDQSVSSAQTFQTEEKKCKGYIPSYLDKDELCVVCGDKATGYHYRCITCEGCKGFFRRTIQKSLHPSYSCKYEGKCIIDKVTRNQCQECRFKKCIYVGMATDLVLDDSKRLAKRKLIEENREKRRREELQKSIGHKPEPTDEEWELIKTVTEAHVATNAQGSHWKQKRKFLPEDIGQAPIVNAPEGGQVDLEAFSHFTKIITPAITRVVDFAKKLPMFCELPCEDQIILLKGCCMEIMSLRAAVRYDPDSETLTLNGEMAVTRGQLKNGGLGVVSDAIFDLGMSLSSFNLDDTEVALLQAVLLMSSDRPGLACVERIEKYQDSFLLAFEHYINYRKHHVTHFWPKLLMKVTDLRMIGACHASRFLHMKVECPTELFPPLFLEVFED
Assay: Binding affinity to the receptor was determined in nuclei of liver In vivo 1 hour after intravenous administration relative to T3
Type: organism-based
# maps each entry to its Relative ID50
Give only the figure.

SMILES CODE: N#Cc1ccc(Cc2cc(Oc3c(I)cc(C[C@H](N)C(=O)O)cc3I)ccc2O)cc1
ASSAYED TARGET: Thyroid hormone receptor beta (Rattus norvegicus)
Relative ID50: 6.1
--
SMILES CODE: N[C@@H](Cc1cc(I)c(Oc2ccc(O)c(Cc3ccccc3O)c2)c(I)c1)C(=O)O
ASSAYED TARGET: Thyroid hormone receptor beta (Rattus norvegicus)
Relative ID50: 0.024
--
SMILES CODE: N[C@@H](Cc1cc(I)c(Oc2ccc(O)c(Cc3ccc(O)nc3)c2)c(I)c1)C(=O)O
ASSAYED TARGET: Thyroid hormone receptor beta (Rattus norvegicus)
Relative ID50: 10
--
SMILES CODE: N[C@@H](Cc1cc(I)c(Oc2ccc(O)c(Cc3ccccc3)c2)c(I)c1)C(=O)O
ASSAYED TARGET: Thyroid hormone receptor beta (Rattus norvegicus)
Relative ID50: 5.1

Now consider the entry below.
[ask] Fill in: Relative ID50 of N[C@@H](Cc1cc(I)c(Oc2ccc(O)c(Cc3ccc(O)cc3)c2)c(I)c1)C(=O)O is ___
[reply] 19

====

system: Rattus norvegicus; experiment: In vivo binding affinity for 3,5,3' triiodothyronine receptor of liver nuclei 1 hour after intravenous administration; format: organism-based
OUTCOME MEASURE: Relative ID50

Here is how some molecules turned out for Relative ID50.
SMILES CODE: N[C@@H](Cc1cc(Br)c(Oc2ccc(O)c(Cc3ccc(O)nc3)c2)c(Br)c1)C(=O)O
ASSAYED TARGET: Rattus norvegicus
Relative ID50: 23
--
SMILES CODE: CC(C)c1cc(Cc2cc(Oc3c(I)cc(C[C@H](N)C(=O)O)cc3I)ccc2O)ccc1O
ASSAYED TARGET: Rattus norvegicus
Relative ID50: 0.11
--
SMILES CODE: N[C@@H](Cc1cc(I)c(Oc2ccc(O)c(Cc3ccc(O)c(F)c3)c2)c(I)c1)C(=O)O
ASSAYED TARGET: Rattus norvegicus
Relative ID50: 0.6
--
SMILES CODE: N[C@@H](Cc1cc(I)c(Oc2ccc(O)c(Cc3ccc([N+](=O)[O-])cc3)c2)c(I)c1)C(=O)O
ASSAYED TARGET: Rattus norvegicus
Relative ID50: 9.8
--
SMILES CODE: N[C@@H](Cc1cc(I)c(Oc2ccc(O)c(Cc3ccc(O)nn3)c2)c(I)c1)C(=O)O
ASSAYED TARGET: Rattus norvegicus
Relative ID50: 38

[ask] Lab note: need Relative ID50 for N[C@@H](Cc1cc(I)c(Oc2ccc(O)c(Cc3ccc(O)c(Cl)c3)c2)c(I)c1)C(=O)O on Rattus norvegicus, anyone have it?
[reply] 0.07
